Exercise: for every item that follows, state its recorded CC50.
assay: Cytotoxicity against human MCF7 cells; format: cell-based
Number only, in µM; omit the unit.

Q: Give its CC50 value. Item: O=C1C(c2ccc(Cl)cc2)=[N+]([O-])c2cc3c(cc21)OCO3
Ans: 23

Q: Name the recorded CC50 for CCN(CC)CCCC(C)Nc1ccnc2cc(Cl)ccc12 (stereo not drawn) [CHLOROQUINE] .
Ans: 19

Q: # lookup: CC50 of O=C1c2cc3c(cc2NC1(O)c1ccc(Cl)cc1)OCO3 (stereo not drawn)
Ans: 68

* * *

assay: Metabolic stability in human RBC assessed as retention time of corresponding dihydroanalogue at 7.8 mg/ml by LC-MS analysis; format: ADME, cell-based; settings: erythrocyte
Criterion: Retention_time strictly less than 10 min. Met: MET. Not met: NOT MET.

Q: Does O=C1C(c2ccc(Cl)cc2)=[N+]([O-])c2cc3c(cc21)OCO3 have Retention_time strictly under 10 min?
Ans: MET

Q: Regarding O=C1C(c2ccc(Cl)c(Cl)c2)=[N+]([O-])c2ccccc21 , kindly confirm whether its Retention_time is beneath 10 min.
Ans: NOT MET

Q: Quick check: does COc1ccc2c(c1)C(=O)C(c1ccc(Cl)c(C)c1)=[N+]2[O-] have Retention_time under 10 min?
Ans: NOT MET

Q: Threshold test, Retention_time < 10 min: COc1ccc2c(c1)C(=O)C(c1ccc(N(C)C)cc1)=[N+]2[O-]
Ans: MET

Q: is_below(Retention_time, 10 min) for COc1ccc2c(c1)C(=O)C(c1ccc(Oc3ccccc3)cc1)=[N+]2[O-] ?
Ans: NOT MET

// data source = ChEMBL document CHEMBL3217635
